Target: murine class II MHC allele E^k on CH27 B cell lymphoma antigen presenting cells (murine)
Assay: cell-based or functional assay
Non-standard residues stand in square brackets, D forms with d. Ava = NCCCCC(=O)O
Listing: T cell proliferative response (HT-2 [3H]TdR uptake) at 0.01 nM of selected binders

Worked cases, T cell proliferative response (HT-2 [3H]TdR uptake) at 0.01 nM given:
Ac-IAYLKQATAK-NH2 [Hybrid 1, Ac-IAYLKQATAK-NH2 (antigenic epitope PGCC 95-104 without Ii-Key)]	0 thousands of cpm
Ac-LRMKLPKSIAYLKQATAK-NH2 [Hybrid 4, Ac-LRMKLPKSIAYLKQATAK-NH2]	2.5 thousands of cpm
Ac-LRMK[Ava]IAYLKQATAK-NH2 (SMILES CC[C@H](C)[C@H](NC(=O)CCCCNC(=O)[C@H](CCCCN)NC(=O)[C@H](CCSC)NC(=O)[C@H](CCCNC(=N)N)NC(=O)[C@H](CC(C)C)NC(C)=O)C(=O)N[C@@H](C)C(=O)N[C@@H](Cc1ccc(O)cc1)C(=O)N[C@@H](CC(C)C)C(=O)N[C@@H](CCCCN)C(=O)N[C@@H](CCC(N)=O)C(=O)N[C@@H](C)C(=O)N[C@H](C(=O)N[C@@H](C)C(=O)N[C@@H](CCCCN)C(N)=O)[C@@H](C)O) [Hybrid 2, Ac-LRMK-ava-IAYLKQATAK-NH2]	3.4 thousands of cpm
Ac-LRMKLPKSAKPIAYLKQATAK-NH2 [Hybrid 5, Ac-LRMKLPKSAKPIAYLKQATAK-NH2]	14.3 thousands of cpm

# T cell proliferative response (HT-2 [3H]TdR uptake) at 0.01 nM of Ac-LRMK[Ava][Ava]IAYLKQATAK-NH2 (SMILES CC[C@H](C)[C@H](NC(=O)CCCCNC(=O)CCCCNC(=O)[C@H](CCCCN)NC(=O)[C@H](CCSC)NC(=O)[C@H](CCCNC(=N)N)NC(=O)[C@H](CC(C)C)NC(C)=O)C(=O)N[C@@H](C)C(=O)N[C@@H](Cc1ccc(O)cc1)C(=O)N[C@@H](CC(C)C)C(=O)N[C@@H](CCCCN)C(=O)N[C@@H](CCC(N)=O)C(=O)N[C@@H](C)C(=O)N[C@H](C(=O)N[C@@H](C)C(=O)N[C@@H](CCCCN)C(N)=O)[C@@H](C)O) [Hybrid 3, Ac-LRMK-ava-ava-IAYLKQATAK-NH2] = 0.6 thousands of cpm

The binder identified as Ac-LRMKLPKSAKPVSKIAYLKQATAK-NH2 [Hybrid 6, Ac-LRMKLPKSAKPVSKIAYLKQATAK-NH2] registered its T cell proliferative response (HT-2 [3H]TdR uptake) at 0.01 nM at 2.9 thousands of cpm
